# AC50 per entry for Alpha-1A adrenergic receptor (Homo sapiens)

Each molecule below has a recorded value; state its AC50.
1. C[C@H](Cc1ccc(O)c(O)c1)[C@@H](C)Cc1ccc(O)c(O)c1
2. CCCN(CCC)C(=O)Cc1c(-c2ccc(Cl)cc2)nc2ccc(Cl)cn12
3. Cc1cc(C(C)(C)C)cc(C)c1CC1=NCCN1
4. CNC1=Nc2ccc(Cl)cc2C(c2ccccc2)=[N+]([O-])C1 [CHLORDIAZEPOXIDE]
5. Cc1cnc(C(=O)NCCc2ccc(S(=O)(=O)NC(=O)NC3CCCCC3)cc2)cn1 [GLIPIZIDE]
6. COc1cc2c(cc1OC)C(CCc1ccc(Cl)cc1)N(C)CC2 (stereo not given)
7. CC(N)C12CC3CC(CC(C3)C1)C2 (stereo not given)

8.61 µM
> 30 µM
1.27 µM
> 10 µM
> 10 µM
> 10 µM
> 10 µM

Give AC50 for each listed item.
1. CC(C)Cc1ccc(C(C)C(=O)O)cc1 (stereo not given)
2. C=CC[C@@H]1/C=C(\C)C[C@H](C)C[C@H](OC)[C@H]2O[C@@](O)(C(=O)C(=O)N3CCCC[C@H]3C(=O)O[C@H](/C(C)=C/[C@@H]3CC[C@@H](O)[C@H](OC)C3)[C@H](C)[C@@H](O)CC1=O)[C@H](C)C[C@@H]2OC [TACROLIMUS ANHYDROUS]
3. CC(C)[C@H](N)C(=O)OCC(CO)OCn1cnc2c(=O)nc(N)[nH]c21 (stereo not given in full)
4. CC(CCc1ccc(O)cc1)NCCc1ccc(O)c(O)c1 (stereo not given)
5. COc1ccccc1Oc1c(NS(=O)(=O)c2ccc(C(C)(C)C)cc2)nc(-c2ncccn2)nc1OCCO
6. C[C@]12C=CC(=O)N[C@@H]1CC[C@@H]1[C@@H]2CC[C@]2(C)[C@@H](C(=O)Nc3cc(C(F)(F)F)ccc3C(F)(F)F)CC[C@@H]12 [DUTASTERIDE]

> 10 µM
> 10 µM
> 30 µM
0.255 µM
> 10 µM
> 10 µM

----------
So I've got a bunch of compounds here, and I need their AC50 values.
Biological target: Histamine H3 receptor (Homo sapiens, UniProt Q9Y5N1); further: assay procedure not described here
Sequence (Q9Y5N1 whole entry): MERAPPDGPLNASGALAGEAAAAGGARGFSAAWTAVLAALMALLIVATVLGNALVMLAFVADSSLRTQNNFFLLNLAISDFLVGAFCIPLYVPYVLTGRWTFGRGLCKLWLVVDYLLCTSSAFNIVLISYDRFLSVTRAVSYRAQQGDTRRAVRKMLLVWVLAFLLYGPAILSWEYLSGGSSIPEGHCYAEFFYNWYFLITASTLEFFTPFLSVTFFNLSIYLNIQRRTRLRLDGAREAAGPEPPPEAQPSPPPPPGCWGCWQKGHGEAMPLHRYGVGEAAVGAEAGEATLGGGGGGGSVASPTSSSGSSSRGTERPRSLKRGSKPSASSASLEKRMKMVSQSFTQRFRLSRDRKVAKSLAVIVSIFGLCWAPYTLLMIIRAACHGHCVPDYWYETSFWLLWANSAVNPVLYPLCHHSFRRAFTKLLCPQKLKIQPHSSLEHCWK

GET /values?readout=AC50&system=Histamine H3 receptor (Homo sapiens, UniProt Q9Y5N1)&item= "C[C@@H](NCCCc1cccc(C(F)(F)F)c1)c1cccc2ccccc12"
> 30 µM

So what AC50 did CC(C)[C@H](N)C(=O)OCC(CO)OCn1cnc2c(=O)nc(N)[nH]c21 (some centres undefined) get with Histamine H3 receptor (Homo sapiens, UniProt Q9Y5N1)?
> 30 µM

Give recorded AC50 with Histamine H3 receptor (Homo sapiens, UniProt Q9Y5N1) for the following compound: CC(C)NCC(O)c1ccc(O)c(O)c1 (centres undefined)
> 10 µM

Which AC50 is reported with Histamine H3 receptor (Homo sapiens, UniProt Q9Y5N1) for this entry: COc1ccccc1OCCNCC(O)COc1cccc2[nH]c3ccccc3c12 (centres undefined) ?
> 30 µM

Find AC50 (Histamine H3 receptor (Homo sapiens, UniProt Q9Y5N1)) for the entry Cc1cccc(N2CC(CO)OC2=O)c1 (centres undefined)
> 30 µM

Field: AC50 (Histamine H3 receptor (Homo sapiens, UniProt Q9Y5N1)). Entry: CC1=C(C)C(=O)C(C(CCCCCC(=O)O)c2ccccc2)=C(C)C1=O (centres undefined)
> 30 µM

// for each compound below, give its AC50
1. COc1ccc(CC2c3cc(OC)c(OC)cc3CC[N+]2(C)CCC(=O)OCCCCCOC(=O)CC[N+]2(C)CCc3cc(OC)c(OC)cc3C2Cc2ccc(OC)c(OC)c2)cc1OC (centres undefined)
2. CC12CC3CC(C)(C1)CC(N)(C3)C2 [MEMANTINE]
3. O=C(O)CCNC(=O)c1ccccc1
4. CC(C(=O)O)c1ccc2c(c1)[nH]c1ccc(Cl)cc12 (centres undefined)
5. COc1ccccc1Oc1c(NS(=O)(=O)c2ccc(C(C)(C)C)cc2)nc(-c2ncccn2)nc1OCCO

["> 30 µM", "> 10 µM", "> 30 µM", "> 30 µM", "> 10 µM"]

Hey, can you go through the list below and give me AC50 for every item?
1. CCC(C)C(CC)C(N)=O (centres undefined) [VALNOCTAMIDE]
2. Cn1c(=O)cc(N2CCC[C@@H](N)C2)n(Cc2ccccc2C#N)c1=O
3. [H]/N=C(/N)N/C(=N/[H])NCCc1ccccc1
4. COc1cc(N)c(Cl)cc1C(=O)NC1CCN(Cc2ccccc2)CC1 [CLEBOPRIDE]
5. CN1CCN(C2=Nc3ccccc3Oc3ccc(Cl)cc32)CC1
6. CCN(CC)CCNC(=O)c1c(C)[nH]c(/C=C2\C(=O)Nc3ccc(F)cc32)c1C
7. Nc1ncn([C@H]2C[C@H](O)[C@@H](CO)O2)c(=O)n1
8. C=CCNc1nc(NCC=C)nc(N2CCN(C(c3ccc(F)cc3)c3ccc(F)cc3)CC2)n1

> 30 µM
> 10 µM
> 10 µM
> 30 µM
> 10 µM
0.88 µM
> 30 µM
> 30 µM

I need AC50 for every entry listed below, if you could help.
1. N[C@@H](CC(=O)N1CCn2c(nnc2C(F)(F)F)C1)Cc1cc(F)c(F)cc1F
2. C[N@+]1(CCF)[C@@H]2CC[C@H]1C[C@@H](OC(=O)C(O)(c1ccccc1)c1ccccc1)C2
3. C[C@H](CCC(=O)O)[C@H]1CC[C@H]2[C@@H]3[C@@H](O)C[C@@H]4C[C@H](O)CC[C@]4(C)[C@H]3CC[C@]12C
4. Cc1cnc(C(=O)NCCc2ccc(S(=O)(=O)NC(=O)NC3CCCCC3)cc2)cn1 [GLIPIZIDE]
5. CNC1=Nc2ccc(Cl)cc2C(c2ccccc2)=[N+]([O-])C1 [CHLORDIAZEPOXIDE]
6. CCN(CC)C(=O)Nc1ccc(OCC(O)CNC(C)(C)C)c(C(C)=O)c1 (centres undefined)
7. C[C@H]1c2cccc(O)c2C(=O)C2=C(O)[C@]3(O)C(=O)C(C(N)=O)=C(O)[C@@H](N(C)C)[C@@H]3[C@@H](O)[C@@H]21
8. CCN(CC)CCN1C(=O)CN=C(c2ccccc2F)c2cc(Cl)ccc21

["> 30 µM", "> 30 µM", "> 30 µM", "> 10 µM", "> 10 µM", "> 30 µM", "> 10 µM", "> 10 µM"]

----------
Molecular target: 5-hydroxytryptamine receptor 2A (Homo sapiens, UniProt P28223); further: assay procedure not described here
Sequence (P28223 whole entry): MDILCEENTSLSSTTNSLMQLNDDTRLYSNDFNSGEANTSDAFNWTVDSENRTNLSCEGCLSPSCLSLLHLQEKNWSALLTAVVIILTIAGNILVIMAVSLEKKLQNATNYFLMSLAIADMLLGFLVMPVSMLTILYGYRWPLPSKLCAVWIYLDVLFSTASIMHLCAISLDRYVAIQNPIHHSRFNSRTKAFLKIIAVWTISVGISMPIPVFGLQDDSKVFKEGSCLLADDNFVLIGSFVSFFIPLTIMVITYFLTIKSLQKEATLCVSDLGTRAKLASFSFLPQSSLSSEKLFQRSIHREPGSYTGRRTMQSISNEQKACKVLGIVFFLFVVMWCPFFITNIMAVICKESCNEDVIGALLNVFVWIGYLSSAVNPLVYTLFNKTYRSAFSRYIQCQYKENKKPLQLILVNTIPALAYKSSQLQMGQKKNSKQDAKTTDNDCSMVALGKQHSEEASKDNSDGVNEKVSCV
Format: functional, cell-based
Provide the reported AC50 of each item.

Use the examples below as a reference point.
Looking for the measured AC50 of "O=C1CN(/N=C/c2ccc(-c3ccc([N+](=O)[O-])cc3)o2)C(O)=N1" , can you help?
> 10 µM

For the molecule "C[C@H](CCC(=O)O)[C@H]1CC[C@H]2[C@@H]3[C@@H](O)C[C@@H]4C[C@H](O)CC[C@]4(C)[C@H]3CC[C@]12C" , what AC50 is on record?
> 30 µM

May I ask what AC50 has been recorded for "CCN1CCN(Cc2ccc(Nc3ncc(F)c(-c4cc(F)c5nc(C)n(C(C)C)c5c4)n3)nc2)CC1" ?
28 µM

Could you now look at the following molecule, please?
Can you look up the measured AC50 of "Nc1ncn([C@H]2C[C@H](O)[C@@H](CO)O2)c(=O)n1" for me?
> 30 µM

----------
Biological target: 3',5'-cyclic-AMP phosphodiesterase 4D (Homo sapiens); further: assay procedure not described here
Sequence (Q08499 whole entry): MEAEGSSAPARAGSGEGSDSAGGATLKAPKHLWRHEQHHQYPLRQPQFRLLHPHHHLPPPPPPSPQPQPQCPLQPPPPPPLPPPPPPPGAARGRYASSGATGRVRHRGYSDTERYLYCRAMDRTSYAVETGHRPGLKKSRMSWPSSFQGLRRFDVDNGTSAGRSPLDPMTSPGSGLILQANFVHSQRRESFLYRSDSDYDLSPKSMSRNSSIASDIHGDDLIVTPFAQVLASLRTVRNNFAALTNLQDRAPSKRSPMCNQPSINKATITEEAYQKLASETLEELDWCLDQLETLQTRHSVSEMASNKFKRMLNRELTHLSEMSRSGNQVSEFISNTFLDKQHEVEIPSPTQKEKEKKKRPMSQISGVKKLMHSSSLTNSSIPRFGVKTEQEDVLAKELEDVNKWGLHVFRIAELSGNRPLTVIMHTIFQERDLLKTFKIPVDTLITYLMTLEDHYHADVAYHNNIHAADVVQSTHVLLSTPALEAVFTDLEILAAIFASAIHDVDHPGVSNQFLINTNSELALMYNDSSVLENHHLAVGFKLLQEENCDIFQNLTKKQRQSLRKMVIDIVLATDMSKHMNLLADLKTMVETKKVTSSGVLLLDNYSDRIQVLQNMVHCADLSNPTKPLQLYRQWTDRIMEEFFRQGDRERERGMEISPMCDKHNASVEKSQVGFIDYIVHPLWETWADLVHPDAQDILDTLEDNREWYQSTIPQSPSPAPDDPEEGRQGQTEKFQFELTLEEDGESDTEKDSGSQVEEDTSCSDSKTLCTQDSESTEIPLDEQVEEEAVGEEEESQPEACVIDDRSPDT
Format: functional
I'd appreciate it if you could supply AC50 values for the items below.
Numbers only, in µM.

Solved entries (count: 2):
// map CCCCCC(=O)O[C@]1(C(C)=O)CC[C@H]2[C@@H]3CCC4=CC(=O)CC[C@]4(C)[C@H]3CC[C@@]21C [HYDROXYPROGESTERONE CAPROATE] to recorded AC50 (system: 3',5'-cyclic-AMP phosphodiesterase 4D (Homo sapiens)); further: assay procedure not described here
25

Param readout = AC50; param system = 3',5'-cyclic-AMP phosphodiesterase 4D (Homo sapiens); param query = CN(C)CCCNc1c2ccccc2nc2cccc([N+](=O)[O-])c12 [NITRACRINE] ; response: value; further: assay procedure not described here
21

Please look at the following compound next.
Give the reported AC50 for CCN(CC)CCNC(=O)c1c(C)[nH]c(/C=C2\C(=O)Nc3ccc(F)cc32)c1C [SUNITINIB] (system: 3',5'-cyclic-AMP phosphodiesterase 4D (Homo sapiens)). Further: assay procedure not described here.
9.8

----------
Target: 5-hydroxytryptamine receptor 2C (Homo sapiens, UniProt P28335); further: assay procedure not described here
Sequence (P28335 whole entry): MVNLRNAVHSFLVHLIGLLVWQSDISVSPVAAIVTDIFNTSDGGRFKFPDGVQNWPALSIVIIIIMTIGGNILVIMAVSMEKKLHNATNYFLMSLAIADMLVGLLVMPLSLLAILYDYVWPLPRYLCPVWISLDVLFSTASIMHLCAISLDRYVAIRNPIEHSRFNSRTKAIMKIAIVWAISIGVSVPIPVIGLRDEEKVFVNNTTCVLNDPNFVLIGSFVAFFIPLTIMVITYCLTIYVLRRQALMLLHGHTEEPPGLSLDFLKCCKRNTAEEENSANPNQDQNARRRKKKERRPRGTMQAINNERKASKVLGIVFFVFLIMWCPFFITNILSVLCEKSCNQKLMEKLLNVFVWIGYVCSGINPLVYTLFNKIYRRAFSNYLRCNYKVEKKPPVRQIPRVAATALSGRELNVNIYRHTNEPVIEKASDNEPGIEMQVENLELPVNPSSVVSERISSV
Record form. Attribute: AC50. Fill in for each entry.

Here's what some known entries look like.
Name the reported AC50 value associated with the compound "C[C@]12CCC(=O)C(O)=C1CC[C@@H]1[C@@H]2CC[C@]2(C)C(=O)CC[C@@H]12"
> 30 µM

Quick one: AC50 of CCN1CCCC1CNC(=O)c1cc(S(=O)(=O)CC)c(N)cc1OC (stereo not given) [AMISULPRIDE] ?
> 30 µM

Please report the recorded AC50 for "Nc1ccc(S(=O)(=O)Nc2nccs2)cc1" .
> 30 µM

AC50 lookup needed for C=CC[C@@H]1/C=C(\C)C[C@H](C)C[C@H](OC)[C@H]2O[C@@](O)(C(=O)C(=O)N3CCCC[C@H]3C(=O)O[C@H](/C(C)=C/[C@@H]3CC[C@@H](O)[C@H](OC)C3)[C@H](C)[C@@H](O)CC1=O)[C@H](C)C[C@@H]2OC [TACROLIMUS ANHYDROUS] , thanks.
> 30 µM

Need AC50 of CCC(=O)O[C@H]1CC[C@H]2[C@@H]3CCC4=CC(=O)CC[C@]4(C)[C@H]3CC[C@]12C [TESTOSTERONE PROPIONATE] , thanks.
> 30 µM

Dear colleague, could you please provide AC50 for the compounds listed below?
1. CCOC(=O)C1=C(C)NC(C)=C(C(=O)OC)C1c1cccc([N+](=O)[O-])c1 (stereo not given)
2. C[C@@H](NCCCc1cccc(C(F)(F)F)c1)c1cccc2ccccc12
3. C=C[C@@]1(C)CC(=O)[C@]2(O)[C@@]3(C)[C@@H](O)CCC(C)(C)[C@@H]3[C@H](O)[C@H](OC(C)=O)[C@@]2(C)O1
4. C[C@]12CC[C@@H]3c4ccc(O)cc4C[C@@H](CCCCCCCCC[S+]([O-])CCCC(F)(F)C(F)(F)F)[C@H]3[C@@H]1CC[C@@H]2O (stereo not given in full)
5. CCC1(c2ccccc2)CCC(=O)NC1=O (stereo not given) [GLUTETHIMIDE]
6. CC1=C(C)C(=O)C(C(CCCCCC(=O)O)c2ccccc2)=C(C)C1=O (stereo not given)
7. C/N=C(\NC)NCc1ccccc1

["> 30 µM", "0.73 µM", "> 30 µM", "> 30 µM", "> 30 µM", "> 30 µM", "> 10 µM"]

Provide reported AC50 for each item, in the same order as listed.
1. O=C(O)c1ccccc1Nc1cc(Cl)ccc1C(=O)O
2. C=C1/C(=C\C=C2/CCC[C@]3(C)[C@@H]([C@H](C)/C=C/[C@@H](O)C4CC4)CC[C@@H]23)C[C@@H](O)C[C@@H]1O
3. [H]/N=C(/N)N/C(=N/[H])NCCc1ccccc1
4. CC(S)C(=O)NCC(=O)O (stereo not given)
5. CCN(CC)C(=O)Nc1ccc(OCC(O)CNC(C)(C)C)c(C(C)=O)c1 (stereo not given)
6. CCC(C)C(CC)C(N)=O (stereo not given) [VALNOCTAMIDE]
7. CC(C)N(CCC(C(N)=O)(c1ccccc1)c1ccccn1)C(C)C (stereo not given) [DISOPYRAMIDE]
8. COc1cc(N)c(Cl)cc1C(=O)NC1CCN(Cc2ccccc2)CC1 [CLEBOPRIDE]

["> 30 µM", "> 30 µM", "> 30 µM", "> 30 µM", "> 30 µM", "> 30 µM", "> 30 µM", "13 µM"]

I have 8 compounds here; please give me AC50 for each one.
1. CCC(COC(=O)c1cc(OC)c(OC)c(OC)c1)(c1ccccc1)N(C)C (stereo not given)
2. COc1ccccc1Oc1c(NS(=O)(=O)c2ccc(C(C)(C)C)cc2)nc(-c2ncccn2)nc1OCCO
3. Cc1cnc(C(=O)NCCc2ccc(S(=O)(=O)NC(=O)NC3CCCCC3)cc2)cn1 [GLIPIZIDE]
4. CC12CC3CC(C)(C1)CC(N)(C3)C2 [MEMANTINE]
5. COc1ccccc1OCCNCC(O)COc1cccc2[nH]c3ccccc3c12 (stereo not given)
6. C#CCOc1ccc(N)cc1C(=O)NCCCC [PARSALMIDE]
7. O=C1CN(/N=C/c2ccc(-c3ccc([N+](=O)[O-])cc3)o2)C(O)=N1
8. CCN(CC)CCNC(=O)c1cc(S(C)(=O)=O)ccc1OC [TIAPRIDE]

> 30 µM
> 30 µM
> 30 µM
> 30 µM
1.1 µM
> 30 µM
> 30 µM
> 30 µM
